Biological target: soluble HLA-A*0201 (sHLA-A*0201) (human)
measurement-label: IC50 (µM)

[[record]]
binder = "KLGEFYNQMM (modifications not checked) […]"
readout_value = 2.87

